system: HRAS; assay: 3' UTR reporter interaction score (median-centred robust z-score of log2 firefly/Renilla activity); higher = less repression of the 3' UTR reporter; conditions: HEK293T; 48 h
measured_attribute: 3' UTR reporter interaction score
The reply should be a number, written without any unit.

Some sequences with known 3' UTR reporter interaction score results, for comparison:
[
  {
    "residue_string": "GGUAGAUUCUCCUUCUAUGAG",
    "3' UTR reporter interaction score": -0.338
  },
  {
    "residue_string": "AGAGGCUGGCCGUGAUGAAUUC",
    "3' UTR reporter interaction score": -0.467
  },
  {
    "residue_string": "GAGGUUGUCCGUGGUGAGUUCG",
    "3' UTR reporter interaction score": -0.768
  }
]

3' UTR reporter interaction score for AACAUUCAACCUGUCGGUGAGU is -0.974

The sequence listed as ACUUGUAUGCUAGCUCAGGUAG shows 3' UTR reporter interaction score equal to 0.169

---

system: EZH2; test: 3' UTR reporter interaction score (median-centred robust z-score of log2 firefly/Renilla activity); higher = less repression of the 3' UTR reporter; details: HEK293T; 48 h
Use criterion met when the recorded 3' UTR reporter interaction score is no lower than 0.2; use criterion not met when it is lower.

[
  {
    "residue_string": "UGAUUGUCCAAACGCAAUUCU",
    "discrete_label": "criterion not met"
  },
  {
    "residue_string": "GCCUGCUGGGGUGGAACCUGG",
    "discrete_label": "criterion not met"
  },
  {
    "residue_string": "AAACAAACAUGGUGCACUUCUUU",
    "discrete_label": "criterion met"
  },
  {
    "residue_string": "UGUAAACAUCCUCGACUGGAAG",
    "discrete_label": "criterion not met"
  },
  {
    "residue_string": "AGCUACAUUGUCUGCUGGGUUUC",
    "discrete_label": "criterion not met"
  },
  {
    "residue_string": "GUGGCUGCACUCACUUCCUUC",
    "discrete_label": "criterion not met"
  },
  {
    "residue_string": "CCACACCGUAUCUGACACUUU",
    "discrete_label": "criterion not met"
  },
  {
    "residue_string": "UGAGUUGGCCAUCUGAGUGAG",
    "discrete_label": "criterion met"
  }
]

(Q) Determine whether this sequence has 3' UTR reporter interaction score no lower than 0.2: AAAGUAGCUGUACCAUUUGC
(A) criterion not met

(Q) Does the reported 3' UTR reporter interaction score for UUGAGAAUGAUGAAUCAUUAGG fall at or above the 0.2 mark?
(A) criterion not met

---

tested on: TP53; experiment: 3' UTR reporter interaction score (median-centred robust z-score of log2 firefly/Renilla activity); higher = less repression of the 3' UTR reporter; conditions: HEK293T; 48 h
measured_attribute: 3' UTR reporter interaction score
Just the number, please.

// below: answered sequences
[
  {
    "residue_string": "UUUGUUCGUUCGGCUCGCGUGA",
    "measured_attribute": "3' UTR reporter interaction score",
    "result_number": 0.275
  },
  {
    "residue_string": "AGGGGUGGUGUUGGGACAGCUCCGU",
    "measured_attribute": "3' UTR reporter interaction score",
    "result_number": 0.0145
  },
  {
    "residue_string": "UAAAGUAAAUAUGCACCAAAA",
    "measured_attribute": "3' UTR reporter interaction score",
    "result_number": 0.703
  },
  {
    "residue_string": "GGGCGCCUGUGAUCCCAAC",
    "measured_attribute": "3' UTR reporter interaction score",
    "result_number": 0.186
  },
  {
    "residue_string": "UAUUGCACUCGUCCCGGCCUC",
    "measured_attribute": "3' UTR reporter interaction score",
    "result_number": -0.261
  },
  {
    "residue_string": "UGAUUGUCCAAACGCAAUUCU",
    "measured_attribute": "3' UTR reporter interaction score",
    "result_number": -0.447
  },
  {
    "residue_string": "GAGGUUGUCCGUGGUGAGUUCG",
    "measured_attribute": "3' UTR reporter interaction score",
    "result_number": -0.45
  }
]

--- query ---
Per the record, UCUGCUCAUACCCCAUGGUUUCU has 3' UTR reporter interaction score of 0.807

---

Form field: 3' UTR reporter interaction score (one value per entry).
test system: EZH2; test: 3' UTR reporter interaction score (median-centred robust z-score of log2 firefly/Renilla activity); higher = less repression of the 3' UTR reporter; settings: HEK293T; 48 h
Simply state the number, no unit and no words.

Known 3' UTR reporter interaction score results, listed for orientation:
[
  {
    "residue_string": "UUCUCCAAAAGAAAGCACUUUCUG",
    "tgt": "EZH2",
    "3' UTR reporter interaction score": 0.815
  },
  {
    "residue_string": "UCAAGAGCAAUAACGAAAAAUGU",
    "tgt": "EZH2",
    "3' UTR reporter interaction score": -0.0128
  },
  {
    "residue_string": "UCCAGCUCCUAUAUGAUGCCUUU",
    "tgt": "EZH2",
    "3' UTR reporter interaction score": 0.255
  },
  {
    "residue_string": "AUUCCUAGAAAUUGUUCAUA",
    "tgt": "EZH2",
    "3' UTR reporter interaction score": 0.167
  },
  {
    "residue_string": "AACGCGCUUCCCUAUAGAGGG",
    "tgt": "EZH2",
    "3' UTR reporter interaction score": 1.38
  },
  {
    "residue_string": "UAUGCAUUGUAUUUUUAGGUCC",
    "tgt": "EZH2",
    "3' UTR reporter interaction score": 0.224
  },
  {
    "residue_string": "UGAGAACUGAAUUCCAUAGGCU",
    "tgt": "EZH2",
    "3' UTR reporter interaction score": 0.351
  },
  {
    "residue_string": "GUGAAAUGUUUAGGACCACUAG",
    "tgt": "EZH2",
    "3' UTR reporter interaction score": -0.221
  },
  {
    "residue_string": "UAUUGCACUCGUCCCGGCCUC",
    "tgt": "EZH2",
    "3' UTR reporter interaction score": -0.851
  },
  {
    "residue_string": "ACUUUAACAUGGAAGUGCUUUCU",
    "tgt": "EZH2",
    "3' UTR reporter interaction score": 0.735
  }
]

Memo: AUAAUACAUGGUUAACCUCUUU , reported 3' UTR reporter interaction score: 0

The sequence listed as UGGGCGUAUCUGUAUGCUA shows 3' UTR reporter interaction score equal to -1.3

Query UGGUAGACUAUGGAACGUA yields 3' UTR reporter interaction score of -0.991

According to the records, this sequence UUGCAUAGUCACAAAAGUGA displays 3' UTR reporter interaction score of 0.179

# sequence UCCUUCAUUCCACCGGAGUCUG ; its 3' UTR reporter interaction score = 0.832

---

system: MYB; experiment: 3' UTR reporter interaction score (median-centred robust z-score of log2 firefly/Renilla activity); higher = less repression of the 3' UTR reporter; conditions: HEK293T; 48 h
# 3' UTR reporter interaction score per record follows
Note: the reply should be a number with no unit written.

Study these solved cases before continuing.
[
  {
    "residue_string": "UCACUCCUCUCCUCCCGUCUUCU",
    "tgt": "MYB",
    "3' UTR reporter interaction score": 0.575
  },
  {
    "residue_string": "ACUGGGGGCUUUCGGGCUCUGCGU",
    "tgt": "MYB",
    "3' UTR reporter interaction score": 0.119
  },
  {
    "residue_string": "CAGCAGCACACUGUGGUUUGU",
    "tgt": "MYB",
    "3' UTR reporter interaction score": -2.62
  },
  {
    "residue_string": "AAAGUGCUUCCUUUUUGAGGG",
    "tgt": "MYB",
    "3' UTR reporter interaction score": -0.87
  },
  {
    "residue_string": "AUUCAUUUGGUAUAAACCGCGAU",
    "tgt": "MYB",
    "3' UTR reporter interaction score": -0.684
  },
  {
    "residue_string": "CCCAGUGUUUAGACUAUCUGUUC",
    "tgt": "MYB",
    "3' UTR reporter interaction score": 0.059
  }
]

Kindly note: MYB, UCGUGUCUUGUGUUGCAGCCG , 3' UTR reporter interaction score value reported: 0.669

Tested on MYB, the item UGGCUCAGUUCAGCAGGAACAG showed 3' UTR reporter interaction score equal to 0.0413
